Origin of values: PubChem BioAssay

viability listing for selected molecules.
# protocol summary: drug combination growth inhibition, ovarian cancer – cell-based, oncology-focused library, rucaparib conditional, profiling panel (AID 1508598)
# test conditions: patient-derived ovarian cancer cells, CellTiter-Glo viability, 144 h; at 5 µM; OCI-C5x cells; with rucaparib 10 µM; active compounds read low; 100% = cells with rucaparib alone
Give the value in % but do not write % after it.

[
  {
    "entry smiles": "CCC[C@H](NC(=O)/C(C#N)=C/c1cccc(Br)n1)c1ccccc1",
    "viability (%)": 8.18
  },
  {
    "entry smiles": "CN1CCN(CCOc2cc(OC3CCOCC3)c3c(Nc4c(Cl)ccc5c4OCO5)ncnc3c2)CC1",
    "viability (%)": 32.8
  },
  {
    "entry smiles": "N#Cc1c(NC(=O)c2cccc3ccccc23)sc2c1CCCC2",
    "viability (%)": 49.6
  }
]

Report viability for "CS(=O)(=O)c1cccc(CNc2nc(Nc3ccc4c(c3)CCC(=O)N4)ncc2C(F)(F)F)c1"
56.8

Identify the reported viability for the following entry. "c1ccc2c(CCNc3ccc(Nc4ccncc4)cc3)c[nH]c2c1"
25.5

Give the value of viability reported for the following: "Cc1ccc(-c2csc(NC(=O)c3ccccc3)n2)c(C)c1"
155

Given "COc1cc(Nc2ncc(F)c(Nc3ccc4c(n3)NC(=O)C(C)(C)O4)n2)cc(OC)c1OC" , respond with its viability.
122

Give the value of viability reported for the following: "Cn1cc(-c2ccc3nnc(Sc4ccc5ncccc5c4)n3n2)cn1"
157

State, in one line, measured viability of "COc1cc2nccc(Oc3ccc(NC(=O)C4(C(=O)Nc5ccc(F)cc5)CC4)cc3)c2cc1OC"
146

Given "Cc1cnc(-c2ccccc2C(C)C)nc1NCc1ccc(-n2ccnn2)cc1" , respond with its viability.
129
